Entries and their Ki values follow.
Target: T1, human IL4Rα/Fc (R and D Systems 604-4R) (human, UniProt P24394 26-231, limits assumed, biotin labelled in the assay of Example 5)
T1 construct: bought protein; also called IL-4Rα/Fc (R&D systems Cat. No. 604-4R-050); not shown: Fc part of the bought fusion
T1 sequence (looked up): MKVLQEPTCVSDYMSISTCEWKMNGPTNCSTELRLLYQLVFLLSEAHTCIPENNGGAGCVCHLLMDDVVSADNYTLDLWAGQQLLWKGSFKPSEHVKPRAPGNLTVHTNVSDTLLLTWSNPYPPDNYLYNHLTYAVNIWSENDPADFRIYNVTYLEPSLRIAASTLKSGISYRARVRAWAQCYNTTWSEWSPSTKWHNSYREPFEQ
Assay: HTRF receptor-ligand assay, purified scFv against biotinylated human IL4

Study these solved cases before continuing.
Antibody 35 scFv (scFv, V domains shown, tested as purified scFv) VH: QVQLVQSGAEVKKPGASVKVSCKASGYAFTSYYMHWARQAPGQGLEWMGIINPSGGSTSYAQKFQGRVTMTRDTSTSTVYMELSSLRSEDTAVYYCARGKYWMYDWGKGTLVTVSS VL: QSVLTQPPSVSAAPGQKVTISCSGGSSNIGNSYVSWYQQLPGTAPKLLIYDNNKRPSGIPDRFSGSKSGTSATLAITGLQTGDEADYYCGTWDTSPVWEWPFGTGTKLTVL : 0.071 nM
Antibody 22 scFv (scFv, V domains shown, tested as purified scFv) VH: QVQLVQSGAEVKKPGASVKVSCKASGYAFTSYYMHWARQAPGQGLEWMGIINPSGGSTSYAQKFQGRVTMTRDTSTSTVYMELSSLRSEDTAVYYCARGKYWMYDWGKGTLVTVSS VL: QPVLTQPPSVSAAPGQKVTISCSGGSSNIGNSYVSWYQQLPGTAPKLLIYDNNKRPSGIPDRFSGSKSGTSATLAITGLQTGDEADYFCGTWDTSTVWEWPFGTGTKLTVL : 0.3 nM

Attention now turns to another entry.
Give Ki for Antibody 14 scFv (scFv, V domains shown, tested as purified scFv) VH: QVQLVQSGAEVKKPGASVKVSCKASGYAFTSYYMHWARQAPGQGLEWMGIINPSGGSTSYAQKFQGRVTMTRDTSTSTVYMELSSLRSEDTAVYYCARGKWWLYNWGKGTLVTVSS VL: QSVLTQPPSVSAAPGQKVTISCSGGSSNIGNSYVSWYQQLPGTAPKLLIYDNNKRPSGIPDRFSGSKSGTSATLAITGLQTGDEADYYCGTWDTSPPTKPLFGTGTKLTVL
0.6 nM
